Exercise: state measured IC50 for each of the molecules provided.
Test system: MDA-MB-231
Run Description: CellTiter-Glo cell growth inhibition, MDA-MB-231
Format: cell-based
Cond: Homo sapiens, MDA-MB-231, 96 h, 4 days, Table 4
Description: Cell growth inhibitory activity of representative Compounds of the Disclosure was determined using the CellTiter-Glo® Luminescent Cell Viability Assay. […] Cell viability was determined using the CellTiter-Glo® Luminescent Cell Viability Assay Kit (Promega, Madison, Wis.) according to the manufacture's instruction. […] The luminescent signal was measured using a Tecan Infinite M1000 multimode microplate reader (Tecan, Morrisville, N.C.). […]
Only the number, expressed in nM, is required.

### Prompt Identify the reported IC50 for the following entry. Cc1nnc2n1-c1sc(C#Cc3ccc(CCCCNc4cccc5c4CN(C4CCC(=O)NC4=O)C5=O)nc3)c(Cc3ccccc3)c1COC2 (stereo not drawn)
### Response 2.4

### Prompt Identify the reported IC50 for the following entry. Cc1nnc2n1-c1sc(C#Cc3cn(CCCCNc4cccc5c4CN(C4CCC(=O)NC4=O)C5=O)cn3)c(Cc3ccccc3)c1CO[C@H]2C (stereo partly drawn)
### Response 58

### Prompt Identify the reported IC50 for the following entry. Cc1nnc2n1-c1sc(C#Cc3cnn(CCCCCc4cccc5c4CN(C4CCC(=O)NC4=O)C5=O)c3)c(Cc3ccccc3)c1CO[C@H]2C (stereo partly drawn)
### Response 12

### Prompt Identify the reported IC50 for the following entry. Cc1nnc2n1-c1sc(C#Cc3cnn(CCCCNc4cccc5c4CN(C4CCC(=O)NC4=O)C5=O)c3)c(Cc3ccccc3)c1COC2 (stereo not drawn)
### Response 0.21

Entry source: patent US11466028B2
